- assay-system: human α2δ-1 subunit of Cav2.2 calcium channel (Homo sapiens (Human), UniProt P54289)
- Sequence (P54289 25-1103): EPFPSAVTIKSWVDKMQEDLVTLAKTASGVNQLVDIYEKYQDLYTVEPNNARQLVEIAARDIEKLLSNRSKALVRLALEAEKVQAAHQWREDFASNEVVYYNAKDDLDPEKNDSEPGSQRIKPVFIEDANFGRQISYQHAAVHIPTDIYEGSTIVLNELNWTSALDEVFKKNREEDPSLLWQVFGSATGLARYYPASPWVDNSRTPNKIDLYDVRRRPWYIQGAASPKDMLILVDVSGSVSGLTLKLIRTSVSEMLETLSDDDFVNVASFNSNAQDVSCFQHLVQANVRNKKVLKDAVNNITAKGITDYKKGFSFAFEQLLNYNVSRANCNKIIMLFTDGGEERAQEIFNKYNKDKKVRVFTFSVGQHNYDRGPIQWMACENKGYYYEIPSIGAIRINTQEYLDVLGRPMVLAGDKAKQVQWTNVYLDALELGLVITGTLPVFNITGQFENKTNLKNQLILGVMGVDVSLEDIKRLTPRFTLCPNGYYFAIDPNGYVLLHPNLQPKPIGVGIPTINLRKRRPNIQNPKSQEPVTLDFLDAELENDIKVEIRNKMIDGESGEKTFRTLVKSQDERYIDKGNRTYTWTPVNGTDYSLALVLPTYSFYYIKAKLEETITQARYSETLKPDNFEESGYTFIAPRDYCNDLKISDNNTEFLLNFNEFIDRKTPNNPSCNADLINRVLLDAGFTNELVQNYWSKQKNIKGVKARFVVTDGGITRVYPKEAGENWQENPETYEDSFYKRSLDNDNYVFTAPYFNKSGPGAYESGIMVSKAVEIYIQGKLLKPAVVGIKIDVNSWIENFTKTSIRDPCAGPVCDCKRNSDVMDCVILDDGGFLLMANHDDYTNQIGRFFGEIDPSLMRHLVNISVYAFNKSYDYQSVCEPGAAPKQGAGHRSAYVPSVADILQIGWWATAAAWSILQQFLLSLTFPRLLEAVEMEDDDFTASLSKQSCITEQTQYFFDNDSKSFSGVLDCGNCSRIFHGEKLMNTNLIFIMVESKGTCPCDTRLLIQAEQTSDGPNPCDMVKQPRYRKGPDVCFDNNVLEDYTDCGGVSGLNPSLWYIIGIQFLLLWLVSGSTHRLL
- measurement-description: Binding assay to human α2δ-1 subunit of Cav2.2 calcium channel ([3H]-Gabapentin)
- measurement-setup: read-out: Ki (nM) α2δ-1; Table 2, dual compounds; [3H]-Gabapentin binding
reported-metric: Ki

-- ask Would you mind telling me what Ki value was observed for CCNc1ncc2c(n1)N(C)CCN(c1cccc(CO[C@@H](CCNC)c3cccs3)c1)C2=O (stereo in doubt) [Example 213] ?
-- reply 500 to 3000 nM

----------
- assay-system: human α2δ-1 subunit of Cav2.2 calcium channel (Homo sapiens (Human))
- measurement-description: Binding assay to human α2δ-1 subunit of Cav2.2 calcium channel ([3H]-Gabapentin)
- measurement-setup: binding to α2δ-1, [3H]-Gabapentin; read-out: Ki (nM) α2δ-1
reported-metric: Ki

-- ask Item: CCNc1ncc2c(n1)N(C)CCN(c1cccc(OC(C)CNC)c1)C2=O (centres unmarked) Test system: human α2δ-1 subunit of Cav2.2 calcium channel (Homo sapiens (Human)) Read-out: Ki Value: ?
-- reply 500 to 3000 nM

-- ask Subsequent entry: CNCCC(Oc1ccc(CN2CCN(C)c3nc(SC)ncc3C2=O)cc1)c1ccccc1 (centres unmarked)
-- reply 500 to 3000 nM

-- ask Subsequent entry: CSc1ncc2c(n1)N(C)CCN(c1cccc(COC3(c4ccccc4)CCNCC3)c1)C2=O
-- reply > 3000 nM

-- ask Subsequent entry: CNCC[C@H](Oc1ccc(CN2CCN(C)c3nc(N(C)C)ncc3C2=O)cc1)c1cccs1
-- reply 100 to 500 nM

-- ask Subsequent entry: CCN1CCN(c2cccc(-c3nnc(C)o3)c2)C(=O)c2cnc(SC)nc21
-- reply > 3000 nM

-- ask Subsequent entry: CCNc1cc2c(cn1)C(=O)N(c1cccc(OC(CCNC)c3ccccc3)c1)CCN2C (centres unmarked)
-- reply 500 to 3000 nM

-- ask Subsequent entry: CCNc1ncc2c(n1)N(C)CCN(c1cccc(-c3nnc(CN4CCC(c5ccccc5)(N(C)C)CC4)o3)c1)C2=O
-- reply 100 to 500 nM

-- ask Subsequent entry: CNCCC(OCc1cccc(CN2CCN(C)c3nc(C)ncc3C2=O)c1)c1ccccc1 (centres unmarked)
-- reply > 3000 nM

----------
- assay-system: human α2δ-1 subunit of Cav2.2 calcium channel (Homo sapiens (Human), UniProt P54289)
- measurement-description: Binding assay to human α2δ-1 subunit of Cav2.2 calcium channel ([3H]-Gabapentin)
- measurement-setup: binding to α2δ-1, [3H]-Gabapentin; read-out: Ki (nM) α2δ-1
Exercise: for every item that follows, state its recorded Ki.

-- ask Would you mind telling me what Ki value was observed for CCNc1ncc2c(n1)N(C)CCN(Cc1cccc(OC(CCNC)c3ccccc3)c1)C2=O (centres unmarked) [Example 407] ?
-- reply 100 to 500 nM

-- ask Subsequent entry: CCNc1ncc2c(n1)N(C)CCN(c1cccc(OCCNC)c1)C2=O [Example 170]
-- reply 100 to 500 nM

-- ask Subsequent entry: CNCC(OCc1ccc(N2CCN(C)c3nc(SC)ncc3C2=O)cc1)c1ccccc1 (centres unmarked) [Example 321]
-- reply > 3000 nM

-- ask Subsequent entry: CCNc1ncc2c(n1)N(C)CCN(c1cccc(-c3nnc(CN4CCC(c5cccc(O)c5)(N(C)C)CC4)o3)c1)C2=O [Example 442]
-- reply < 100 nM

-- ask Subsequent entry: CCNc1ncc2c(n1)N(C)CCN(c1cccc(OCCN3CCOCC3)c1)C2=O [Example 440]
-- reply 500 to 3000 nM

-- ask Subsequent entry: CCNc1ncc2c(n1)N(C)CCN(c1cccc(CCNC)c1)C2=O [Example 172]
-- reply 100 to 500 nM

-- ask Subsequent entry: CNCCC(OCc1ccc(N2CCN(C)c3nc(SC)ncc3C2=O)cc1)c1ccccc1 (centres unmarked) [Example 315]
-- reply > 3000 nM

-- ask Subsequent entry: CCNc1ncc2c(n1)N(C)CCN(c1ccc(COC(CNC)c3ccccc3)cc1)C2=O (centres unmarked) [Example 340]
-- reply > 3000 nM

-- ask Subsequent entry: CNCC[C@@H](OCc1cccc(N2CCN(C)c3ncncc3C2=O)c1)c1ccccc1 [Example 207]
-- reply 500 to 3000 nM

-- ask Subsequent entry: CCNc1ncc2c(n1)N(C)CCN(c1cccc(-n3cc(CNC)nn3)c1)C2=O [Example 180]
-- reply 100 to 500 nM

-- ask Subsequent entry: CCNc1ncc2c(n1)N(C)CCN(c1cccc(Br)c1)C2=O [Example 112]
-- reply > 3000 nM

-- ask Subsequent entry: CN(CCC(OCc1cccc(N2CCN(C)c3ncncc3C2=O)c1)c1cccs1)C(=O)OC(C)(C)C (centres unmarked) [Example 146]
-- reply > 3000 nM

-- ask Subsequent entry: CCNc1ncc2c(n1)N(C)CCN(c1ccccc1OC(CNC)c1ccccc1)C2=O (centres unmarked) [Example 338]
-- reply > 3000 nM

-- ask Subsequent entry: CNCC[C@@H](OCc1cccc(N2CCN(C)c3nc(NC)ncc3C2=O)c1)c1ccccc1 [Example 197]
-- reply 500 to 3000 nM

-- ask Subsequent entry: CSc1ncc2c(n1)N(C)CCN(c1cccc(OC(CCN(C)C(=O)OCC[Si](C)(C)C)c3cccs3)c1)C2=O (centres unmarked) [Example 51]
-- reply > 3000 nM

-- ask Subsequent entry: CNCCC(OCc1ccccc1CN1CCN(C)c2nc(C)ncc2C1=O)c1ccccc1 (centres unmarked) [Example 421]
-- reply > 3000 nM

-- ask Subsequent entry: Cc1nnc(-c2cccc(N3CCN(C)c4nc(NC5CCCCC5)ncc4C3=O)c2)o1 [Example 103]
-- reply > 3000 nM

-- ask Subsequent entry: CCNc1ncc2c(n1)N(C)CCN(c1cccc(CO[C@H](CCN(C)C(=O)OC(C)(C)C)c3ccccc3)c1)C2 [Example 65]
-- reply > 3000 nM

-- ask Subsequent entry: CSc1ncc2c(n1)N(C)CCN(c1ccc(OC(CN(C)C(=O)OC(C)(C)C)c3ccccc3)cc1)C2=O (centres unmarked) [Example 8]
-- reply > 3000 nM

-- ask Subsequent entry: CSc1ncc2c(n1)N(C)CCN(c1cccc(O[C@@H](CCN(C)C(=O)OC(C)(C)C)c3cccs3)c1)C2=O [Example 14]
-- reply > 3000 nM

-- ask Subsequent entry: CSc1ncc2c(n1)N(C)CCN(c1cccc(COC(CCN(C)C(=O)OC(C)(C)C)c3ccccc3)c1)C2=O (centres unmarked) [Example 9]
-- reply > 3000 nM

-- ask Subsequent entry: CSc1ncc2c(n1)N(C)CCN(c1cccc(-n3cc(CCN(C)C(=O)OC(C)(C)C)nn3)c1)C2=O [Example 43]
-- reply > 3000 nM

-- ask Subsequent entry: CCNc1ncc2c(n1)N(C)CCN(c1cccc(OC3CCNC3)c1)C2=O (centres unmarked) [Example 175]
-- reply 100 to 500 nM

-- ask Subsequent entry: CCNc1ncc2c(n1)N(C)CCN(c1cccc(-c3nnc(CNC)o3)c1)C2=O [Example 187]
-- reply > 3000 nM

-- ask Subsequent entry: Cc1cc2c(cn1)C(=O)N(c1cccc(OC(CCN(C)C(=O)OCC[Si](C)(C)C)c3cccs3)c1)CCN2C (centres unmarked) [Example 302]
-- reply > 3000 nM

-- ask Subsequent entry: CSc1ncc2c(n1)N(C)CCN(c1cccc(-n3cc(CN(C)C(=O)OC(C)(C)C)cn3)c1)C2=O [Example 45]
-- reply > 3000 nM

-- ask Subsequent entry: CCNc1ncc2c(n1)N(C)CCN(c1cccc(-n3cc(CN(C)Cc4ccccc4)nn3)c1)C2=O [Example 243]
-- reply 500 to 3000 nM

-- ask Subsequent entry: CNCC[C@@H](OCc1cccc(N2CCN(C)c3nc(N(C)Cc4cccnc4)ncc3C2=O)c1)c1ccccc1 [Example 342]
-- reply 100 to 500 nM

-- ask Subsequent entry: CCNc1ncc2c(n1)N(C)CCN(Cc1ccccc1OC(CCNC)c1ccccc1)C2=O (centres unmarked) [Example 409]
-- reply > 3000 nM

-- ask Subsequent entry: CCNc1ncc2c(n1)N(C)CCN(c1cccc(CCN(C)C(=O)OC(C)(C)C)c1)C2=O [Example 92]
-- reply > 3000 nM

-- ask Subsequent entry: CSc1ncc2c(n1)N(C)CCN(c1cccc(-n3cc(CN(C)C(=O)OC(C)(C)C)nn3)c1)C2=O [Example 39]
-- reply > 3000 nM

-- ask Subsequent entry: CCNc1ncc2c(n1)N(C)CCN(c1cccc(-n3cc(CNCC4CC4)nn3)c1)C2=O [Example 285]
-- reply 100 to 500 nM
